Each entry below carries its reported Plant response rating (scale 0 to 100), Galium.
Tested on: galium (catchweed bedstraw, Galium aparine)
Assay: Test D pre-/postemergence plant response
Assay type: in vivo
Conditions: Postemergence, 16 g ai/ha
Text: […]
In your answer, state the number alone without any accompanying words.

Per the records, this compound ( N#Cc1cccc(Oc2ncc(Cl)cn2)c1-c1cc(C(F)F)on1 [Compound 180] ) has Plant response rating (scale 0 to 100), Galium equal to 65

====

System: soybean (Glycine max)
Test: Test D pre-/postemergence plant response
Type: in vivo
Settings: Postemergence, 16 g ai/ha
Each entry below carries its reported Plant response rating (scale 0 to 100), Soybean.
In your answer, state the number alone without any accompanying words.

Reference set (3 entries):
Chemical smiles: Fc1ccc(Oc2ncc(Cl)cn2)c(-c2cc(C(F)(Cl)Cl)on2)c1
System: soybean (Glycine max)
Quantitative readout: 35

Chemical smiles: FCc1cc(-c2ccccc2Oc2ncc(Cl)cn2)on1
System: soybean (Glycine max)
Quantitative readout: 35

Chemical smiles: Clc1cnc(Oc2ccccc2-c2cc(C3CC3)on2)nc1
System: soybean (Glycine max)
Quantitative readout: 65

Per the records, this molecule ( `CC(F)(F)c1cc(-c2ccccc2Oc2ncc(Cl)cn2)on1` ) has Plant response rating (scale 0 to 100), Soybean equal to 15

Per the records, this molecule ( `FC(Cl)(Cl)c1cc(-c2ccccc2Oc2ncc(Cl)cn2)no1` ) has Plant response rating (scale 0 to 100), Soybean equal to 10

Per the records, this molecule ( `Clc1cnc(Oc2ccccc2-c2cc(Cl)sn2)nc1` ) has Plant response rating (scale 0 to 100), Soybean equal to 10

Per the records, this molecule ( `CC(F)(F)c1cc(-c2ccccc2Oc2ncc(Cl)cn2)no1` ) has Plant response rating (scale 0 to 100), Soybean equal to 10

====

System: barnyardgrass (Echinochloa crus-galli)
Assay: Test B pre-/postemergence plant response
Assay type: in vivo
Conditions: 125 g ai/ha, postemergence; 0 to 100 scale, 0 no effect, 100 complete control
Endpoint name: Plant response rating, Barnyardgrass

Reference set (5 entries):
Chemical smiles: FC(F)(F)c1csc(-c2ccccc2Oc2ncc(Cl)cn2)n1
Plant response rating, Barnyardgrass: 0
--
Chemical smiles: C=C(C)c1cc(-c2ccccc2Oc2ncc(Br)cn2)on1
Plant response rating, Barnyardgrass: 0
--
Chemical smiles: FCc1cc(-c2ccccc2Oc2ncc(Cl)cn2)on1
Plant response rating, Barnyardgrass: 50
--
Chemical smiles: Clc1ccc(-c2c(Br)cccc2Oc2ncc(Cl)cn2)nc1
Plant response rating, Barnyardgrass: 10
--
Chemical smiles: COc1cnc(Oc2ccccc2-c2cc(C(F)F)no2)nc1
Plant response rating, Barnyardgrass: 0

Per the records, this molecule ( `FC(F)(F)c1cnc(Oc2ccccc2-c2cncs2)nc1` ) has Plant response rating, Barnyardgrass equal to 0

Per the records, this molecule ( `CC(F)(F)c1cc(-c2ccccc2Oc2ncc(Cl)cn2)on1` ) has Plant response rating, Barnyardgrass equal to 40

Per the records, this molecule ( `FC(F)(F)c1cccc(-c2ccccc2Oc2ncc(Cl)cn2)n1` ) has Plant response rating, Barnyardgrass equal to 0

Per the records, this molecule ( `FC(F)=Cc1cc(-c2c(F)cccc2Oc2ncc(Cl)cn2)no1` ) has Plant response rating, Barnyardgrass equal to 0

Per the records, this molecule ( `COc1ccnc(-c2ccccc2Oc2ncc(Cl)cn2)c1` ) has Plant response rating, Barnyardgrass equal to 0
